Value source: ChEMBL document CHEMBL3585289

assay: Fraction unbound in rat plasma at 10 uM after 6 hrs by dialysis method; type: ADME, cell-free
recorded endpoint: fraction unbound at 6 h, 10 µM
Give bare numbers.

Identify the reported fraction unbound at 6 h, 10 µM for the following entry. Cc1ccc(-n2nc(N3CCN(C)CC3)cc2NC(=O)c2cnn3cccnc23)nc1
0.21

* * *

Target: Interleukin-1 receptor-associated kinase 4 (Homo sapiens, UniProt Q9NWZ3)
Sequence (Q9NWZ3 whole entry): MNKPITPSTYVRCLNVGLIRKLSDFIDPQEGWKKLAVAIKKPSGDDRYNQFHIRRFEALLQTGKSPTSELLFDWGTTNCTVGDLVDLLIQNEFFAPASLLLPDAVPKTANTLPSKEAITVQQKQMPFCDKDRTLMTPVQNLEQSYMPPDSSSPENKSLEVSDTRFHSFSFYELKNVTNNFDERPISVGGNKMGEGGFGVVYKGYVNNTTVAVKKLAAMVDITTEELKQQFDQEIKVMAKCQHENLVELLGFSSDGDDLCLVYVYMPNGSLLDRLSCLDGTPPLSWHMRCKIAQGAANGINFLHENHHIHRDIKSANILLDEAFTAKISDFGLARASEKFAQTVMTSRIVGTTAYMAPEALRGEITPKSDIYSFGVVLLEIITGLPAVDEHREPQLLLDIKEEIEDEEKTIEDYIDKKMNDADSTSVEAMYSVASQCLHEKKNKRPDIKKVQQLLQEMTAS
Test: Inhibition of IRAK4 in human THP1-XBlue cells assessed as suppression of TLR4 agonist LPS-induced activation of NF-kappaB preincubated for 1 hr followed by LPS challenge measured after 5 hrs by secreted embryonic alkaline phosphatase reporter gene assay
Format: cell-based, THP-1
Task for the reader: assign each of the following compounds its reported IC50.
Please report the result as a number followed by the unit.

[
  {
    "chem smiles": "Cc1ccc(-n2nc(N3CCN(C)CC3)cc2NC(=O)c2cnn3cccnc23)nc1",
    "subject of test": "Interleukin-1 receptor-associated kinase 4 (Homo sapiens, UniProt Q9NWZ3)",
    "IC50": "0.083 µM"
  }
]

Now turn to the next compound.
Identify the reported IC50 for the following entry. Cc1ccc(-n2nc(C3CCN(S(C)(=O)=O)CC3)cc2NC(=O)c2cnn3cccnc23)cc1
2.4 µM
